Biological target: Kv7.2 (Homo sapiens)
Construct: expressed in transfected cells
Assay: Activation of Kv7.2 (in vitro assay, concentration response curve)
Type: cell-based
Settings: Kv7.2 activation max %
result.type: Emax (%)
Answers are plain numbers, in %.

Known Emax results, listed for orientation:
compound="O=C(NC(CO)c1ccnc(OC(F)F)c1)N[C@@H]1COc2ccccc2C1 (stereo in doubt)" measurement_units=% observed_measurement=52
compound=CC(C)(C)CCNC(=O)NCc1ccnc(OC(F)F)c1 measurement_units=% observed_measurement=51
compound=O=C(NCc1ccnc(OCC(F)(F)F)c1)NCC1CCC1 measurement_units=% observed_measurement=52

Field: next compound
Kv7.2 (Homo sapiens) data for CC(C)(C)C(O)CNC(=O)NCc1ccnc(OC(F)F)c1 (stereo not shown) ; its Emax: 43
